Assay: yeast display, Sf9 membrane polyspecificity reagent, FACS + sequencing; frameworks hold sequencing errors
measurement_type: polyreactivity (PSR sort gate)

INSERT INTO measurements (construct_sequence, result_value) VALUES
  ('QVQLVDSGGGLVQAGGSLRLSSAASGRIFPRYAMGWDRQAPGKERELVATISSGGSTYYADSVKGRFTISRDNAKNTVYLQMISLKPEDTAVYYCATGRQVVRSYSEGDYWGQGTQVTVSS', 'low polyreactivity'),
  ('QVQLVESGGGLVQAGGSLRLSCAASGFTSTLNDMGWYRQAPGKERELVAAISNGGSTYYADSVKGRFTISRDNAKNTVYLQMNSLKPEDTAVYYCAVTATAPQEGDYWGQGTQVTVSS', 'low polyreactivity'),
  ('QVQLVESGGGLVQAGGSLRLSCAASGSTFRYYAMGWYRLAPGKERELVAAITASGTSTYYADSVKGRFTISRDNAKNTVYLQMNSLKPEDTAVYYCAARWRYGYYWGQGTQVTVSS', 'high polyreactivity'),
  ('QVQLVESGGGLVQAGGSLRLSCAASGSTFSSYGMGWYRQAPGKERELVAAISKRGGSTYYADSVKGRFTISRDNAKNTVYLQMNSLKPEDTAVYYCAAAVRKQGYSTLFDYWGQGTQVTVSS', 'high polyreactivity');

// next entry
Param item = QVQLVESGGGLVQAGGSLRLSCAASGRIFRYYAMGWYRQAPGKERELVAVISSRGGSTFYADSVKGRFTISRDNAKNTVYLQMNSLKPEDTAVYYCASRSLYVGYDYWGQGTQVTVSS ; retrieve measured polyreactivity (PSR sort gate).
high polyreactivity
